Target: Factor X (FX), P00742
Sequence (P00742 whole entry, looked up): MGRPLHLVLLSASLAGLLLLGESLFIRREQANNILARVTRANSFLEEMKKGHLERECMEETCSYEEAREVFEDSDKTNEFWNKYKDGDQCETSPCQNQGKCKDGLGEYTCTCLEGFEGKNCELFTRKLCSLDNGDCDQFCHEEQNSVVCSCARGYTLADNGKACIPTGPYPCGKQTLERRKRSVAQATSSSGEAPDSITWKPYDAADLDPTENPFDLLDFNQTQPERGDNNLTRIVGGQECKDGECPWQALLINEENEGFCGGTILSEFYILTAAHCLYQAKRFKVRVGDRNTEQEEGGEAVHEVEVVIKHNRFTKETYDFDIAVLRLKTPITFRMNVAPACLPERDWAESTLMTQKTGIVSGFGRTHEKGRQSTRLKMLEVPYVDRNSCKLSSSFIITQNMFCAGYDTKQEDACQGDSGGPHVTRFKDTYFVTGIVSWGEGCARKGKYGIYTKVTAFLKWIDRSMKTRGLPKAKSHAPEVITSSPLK
measurement.kind: KM of FX activation by FIXa in the Xase complex (FVIIIa, PC/PS vesicles, Ca2+)

{"protein": "FIXa variant Y155F/R318Y/R338E/R403E (mature FIX numbering) (protein) chain 1: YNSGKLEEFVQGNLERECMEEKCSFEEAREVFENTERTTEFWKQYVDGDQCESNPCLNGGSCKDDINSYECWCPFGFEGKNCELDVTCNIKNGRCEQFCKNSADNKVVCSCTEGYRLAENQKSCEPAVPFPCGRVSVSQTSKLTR chain 2: VVGGEDAKPGQFPWQVVLNGKVDAFCGGSIVNEKWIVTAAHCVETGVKITVVAGEHNIEETEHTEQKRNVIRIIPHHNYNAAINKYNHDIALLELDEPLVLNSYVTPICIADKEYTNIFLKFGSGYVSGWGRVFHKGYSALVLQYLRVPLVDRATCLESTKFTIYNNMFCAGFHEGGRDSCQGDSGGPHVTEVEGTSFLTGIISWGEECAMKGKYGIYTKVSEYVNWIKEKTKLT", "assay.value": "0.0671 µM"}

These measurements were taken from patent US20210230570.
